Source of measurements: paper PMC6920997

Tested on: L. donovani intracellular amastigotes in THP1 cells
EXPERIMENT DESCRIPTION: Antileishmanial assay, intracellular amastigotes in THP1 cells
Type: cell-based
CONDITION DETAILS: Leishmania donovani, THP-1, read-out: L. donovani Amastigote/THP1 IC90
Recorded IC90 by entry
The reply should contain only the number, in µM.

COMPOUND: N=C(N)c1ccc(OCCCCCOc2ccc(C(=N)N)cc2)cc1 [Pentamidine, reference compound]
TESTED ON: L. donovani intracellular amastigotes in THP1 cells
IC90, µM: 5.59

Attention now turns to another entry.
In: Fill: IC90 (L. donovani intracellular amastigotes in THP1 cells) for this compound C[C@@H]1[C@H](O)[C@@H](C)/C=C/C=C/C=C/C=C/C=C/C=C/C=C/[C@H](O[C@@H]2O[C@H](C)[C@@H](O)[C@H](N)[C@@H]2O)C[C@@H]2O[C@](O)(C[C@@H](O)C[C@@H](O)[C@H](O)CC[C@@H](O)C[C@@H](O)CC(=O)O[C@H]1C)C[C@H](O)[C@H]2C(=O)O [Amphotericin B, reference compound]
Out: 0.421

---

EXPERIMENT DESCRIPTION: Cytotoxicity assay (neutral red) KB
Format: cell-based
CONDITION DETAILS: human, KB cells, NA = No activity at 100 μM
METRIC NAME: IC50 at 48 h (µg/mL)
Could you give me the number in µg/mL? Just the number is fine.

In: Tell me measured IC50 at 48 h for COc1cccc2c1C(=O)c1c(O)c3c(c(O)c1C2=O)C[C@@](O)(C(=O)CO)C[C@@H]3O[C@H]1C[C@H](N)[C@H](O)[C@H](C)O1 please.
Out: 1.3

---

EXPERIMENT DESCRIPTION: Cytotoxicity assay (neutral red) LLC-PK1
Format: cell-based
CONDITION DETAILS: pig, LLC-PK1 cells (noncancerous kidney cells), NC = Not cytotoxic
METRIC NAME: IC50 at 48 h (µg/mL)
Reply numerically in µg/mL, unit not repeated.

In: Input COc1cccc2c1C(=O)c1c(O)c3c(c(O)c1C2=O)C[C@@](O)(C(=O)CO)C[C@@H]3O[C@H]1C[C@H](N)[C@H](O)[C@H](C)O1 , output reported IC50 at 48 h.
Out: 1.2

---

EXPERIMENT DESCRIPTION: Cytotoxicity against Vero cell line (antimalarial counterscreen)
Format: cell-based
CONDITION DETAILS: African green monkey; column head does not name the cells; read-out: IC50 (third IC50 column of Table 7, presumably Vero cytotoxicity)
METRIC NAME: IC50

In: Query IC50 for CCN(CC)CCCC(C)Nc1ccnc2cc(Cl)ccc12 (stereo not shown) [CQ, Chloroquine, reference compound]
Out: > 0.238 µg/mL

---

The molecules listed here are annotated with their IC50.
Tested on: L. donovani promastigotes
EXPERIMENT DESCRIPTION: Antileishmanial Alamar Blue assay, promastigotes
Format: cell-based
CONDITION DETAILS: Leishmania donovani; read-out: L. donovani Promastigote IC50
Experimental: The in vitro antileishmanial and antitrypanosomal assays were done on cell cultures of L. donovani promastigotes, axenic amastigotes, THP1-amastigotes, and Trypanosoma brucei trypomastigotes by Alamar Blue assays. […] The antiprotozoal activity of C. villosus extracts and isolated compounds were evaluated in vitro against L. donovani promastigotes, axenic amastigotes, and intracellular amastigotes in THP1 cells. […]
Number in µM, nothing else.

MOLECULE: N=C(N)c1ccc(OCCCCCOc2ccc(C(=N)N)cc2)cc1 [Pentamidine, reference compound]
IC50 [µM]: 1.48

Shift focus to the following entry.
In: Please look at this molecule and report its IC50: C[C@@H]1[C@H](O)[C@@H](C)/C=C/C=C/C=C/C=C/C=C/C=C/C=C/[C@H](O[C@@H]2O[C@H](C)[C@@H](O)[C@H](N)[C@@H]2O)C[C@@H]2O[C@](O)(C[C@@H](O)C[C@@H](O)[C@H](O)CC[C@@H](O)C[C@@H](O)CC(=O)O[C@H]1C)C[C@H](O)[C@H]2C(=O)O [Amphotericin B, reference compound]
Out: 0.136

---

EXPERIMENT DESCRIPTION: Cytotoxicity against Vero cell line (antimalarial counterscreen)
Format: cell-based
CONDITION DETAILS: African green monkey, Vero cells; column head does not name the cells; read-out: IC50 (third IC50 column of Table 7, presumably Vero cytotoxicity)
METRIC NAME: IC50

In: Please indicate IC50 recorded for O=c1cc(-c2ccccc2)oc2cc(O[C@@H]3O[C@H](CO)[C@@H](O)[C@H](O)[C@H]3O)cc(O)c12 [Compound 3, chrysin-7-O-β-D-glucopyranoside]
Out: > 4.76 µg/mL

---

EXPERIMENT DESCRIPTION: THP1 cytotoxicity
Format: cell-based
CONDITION DETAILS: human
METRIC NAME: IC50

MOLECULE: N=C(N)c1ccc(OCCCCCOc2ccc(C(=N)N)cc2)cc1 [Pentamidine, reference compound]
IC50: > 10 µM

Now consider the entry below.
In: Look up and report measured IC50 for this entry: C[C@@H]1[C@H](O)[C@@H](C)/C=C/C=C/C=C/C=C/C=C/C=C/C=C/[C@H](O[C@@H]2O[C@H](C)[C@@H](O)[C@H](N)[C@@H]2O)C[C@@H]2O[C@](O)(C[C@@H](O)C[C@@H](O)[C@H](O)CC[C@@H](O)C[C@@H](O)CC(=O)O[C@H]1C)C[C@H](O)[C@H]2C(=O)O [Amphotericin B, reference compound]
Out: > 2 µM

---

EXPERIMENT DESCRIPTION: Cytotoxicity assay (neutral red) BT-549
Format: cell-based
CONDITION DETAILS: human, BT-549 cells, NA = No activity at 100 μM
METRIC NAME: IC50 at 48 h (µg/mL)
Value expressed in µg/mL; do not type the unit.

In: Find the measured IC50 at 48 h of COc1cccc2c1C(=O)c1c(O)c3c(c(O)c1C2=O)C[C@@](O)(C(=O)CO)C[C@@H]3O[C@H]1C[C@H](N)[C@H](O)[C@H](C)O1 [doxorubicin, Doxorubicin] and report it.
Out: 0.9

---

EXPERIMENT DESCRIPTION: Cytotoxicity against Vero cell line (antimalarial counterscreen)
Assay type: cell-based
CONDITION DETAILS: African green monkey
METRIC NAME: IC50

In: Item O=c1cc(-c2ccccc2)oc2cc(O)cc(O)c12 [Compound 2, chrysin] : provide IC50
Out: > 4.76 µg/mL

---

Tested on: iNOS
EXPERIMENT DESCRIPTION: Inhibition of iNOS (intracellular NO production) in RAW 264.7 macrophages
Type: cell-based
CONDITION DETAILS: Mus musculus, RAW264.7; RAW 264.7 cells; NA = no activity at 25 µg/mL (pure compounds) or 100 µg/mL (extracts)
METRIC NAME: IC50 (µg/mL)

1 = O=c1cc(-c2ccccc2)oc2cc(O[C@@H]3O[C@H](CO)[C@@H](O)[C@H](O)[C@H]3O)cc(O)c12 [Compound 3, chrysin-7-O-β-D-glucopyranoside]
2 = C=C1C(=O)O[C@H]2[C@H]1CC/C(C)=C/CC[C@@]1(C)O[C@@H]21 [Parthenolide, reference compound]
3 = O=c1c(-c2ccc(O)cc2)coc2cc(O)cc(O)c12
In: Lab note: order the above by reported IC50, lowest first, highest last. Response field: labels, in requested order.
Out: 2, 3, 1

---

Tested on: L. donovani axenic amastigotes
EXPERIMENT DESCRIPTION: Antileishmanial Alamar Blue assay, axenic amastigotes
Type: cell-based
CONDITION DETAILS: Leishmania donovani, read-out: L. donovani Amastigote IC90
METRIC NAME: IC90

Some molecules with known IC90 results, for comparison:
MOLECULE: C[C@@H]1[C@H](O)[C@@H](C)/C=C/C=C/C=C/C=C/C=C/C=C/C=C/[C@H](O[C@@H]2O[C@H](C)[C@@H](O)[C@H](N)[C@@H]2O)C[C@@H]2O[C@](O)(C[C@@H](O)C[C@@H](O)[C@H](O)CC[C@@H](O)C[C@@H](O)CC(=O)O[C@H]1C)C[C@H](O)[C@H]2C(=O)O [Amphotericin B, reference compound]
IC90: 0.374 µM
--
MOLECULE: C[C@@H]1O[C@@H](O[C@@H]2[C@@H](O)[C@H](O)[C@@H](CO)O[C@H]2c2c(O)cc(O)c3c(=O)cc(-c4ccc(O)c(O)c4)oc23)[C@H](O)[C@H](O)[C@H]1O [Compound 4, 2″-O-α-L-rhamnosylorientin]
IC90: > 10 µM
--
MOLECULE: N=C(N)c1ccc(OCCCCCOc2ccc(C(=N)N)cc2)cc1 [Pentamidine, reference compound]
IC90: > 10 µM

Okay, next one:
In: Report the value of IC90 obtained on L. donovani axenic amastigotes for O=c1cc(-c2ccccc2)oc2cc(O[C@@H]3O[C@H](CO)[C@@H](O)[C@H](O)[C@H]3O)cc(O)c12 [Compound 3, chrysin-7-O-β-D-glucopyranoside] .
Out: > 10 µM
